System: HL-60(TB) leukemia
Assay: NCI tumour cell line growth inhibition, 48 h

{"entry_smiles": "CSc1ncc(Br)c(Sc2nc(N)nc3nc[nH]c23)n1", "GI50": "4.34 µM"}
{"entry_smiles": "CCN1CCN(c2cc(C)nc(N(CCCNc3ccnc4cc(Cl)ccc34)Cc3ccc4c(c3)OCO4)n2)CC1", "GI50": "1.9 µM"}
{"entry_smiles": "O=c1c2cc(-c3ccccc3)sc2ncn1Cc1ccc(Cl)c(Cl)c1", "GI50": "14.9 µM"}

----------
Test system: MALME-3M melanoma
Test: NCI tumour cell line growth inhibition, 48 h; in the data active = GI50 below about 0.43 µM; inactive = the rest
Possible outcomes: active, inactive

{"compound": "O=S1(=O)N(Cc2ccccc2)[C@@H](Cc2ccccc2)[C@H](O)[C@H](O)[C@H](Cc2ccccc2)N1Cc1ccccc1", "category_label": "inactive"}
{"compound": "COc1ccc(/C=C/C(=O)c2ccc(-n3cc(CN4CCN(c5cc6c(cc5F)c(=O)c(C(=O)O)cn6C5CC5)CC4)nn3)cc2)cc1OC", "category_label": "inactive"}
{"compound": "CC[C@@]1(OC(=O)CN)C(=O)OCc2c1cc1n(c2=O)Cc2c-1nc1cc3c(cc1c2CCl)OCO3", "category_label": "active"}
{"compound": "O=C(/C=C/c1ccc(C(F)(F)F)cc1)Nc1ccc(C=C2c3ccccc3C(=O)c3ccccc32)cc1", "category_label": "inactive"}
{"compound": "COc1ccc2c(c1OC)-c1c(c3ccc([N+](=O)[O-])cc3c(=O)n1CCCBr)C2=O", "category_label": "inactive"}
{"compound": "O=C(Nc1ccc(F)cc1F)c1cc(Cl)ccc1O", "category_label": "inactive"}
{"compound": "CN(C)CCNC(=O)c1ccc(-c2nc3ccc4[nH]ncc4c3c3c2C2CCC3C2)cc1 (configuration not stated)", "category_label": "inactive"}
